- Tested on: T-47D spheroids with HUVEC/MSC, viability
- METHOD SUMMARY: Anticancer human tumor T-47D cell line growth inhibition [PI3K];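 further: spheroids exposed to agents for seven days before reading; percent of DMSO vehicle control luminescence so 100% = untreated growth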
- MEASUREMENT CONDITIONS: second compound 3.16 µM; first compound 1 µM; stronger effect = lower value
Exercise: for every item that follows, state its recorded viability, T/C.
Entry rule: numbers only, all in %.

Challenge: Look up viability, T/C for this compound: CCCS(=O)(=O)Nc1ccc(F)c(C(=O)c2c[nH]c3ncc(-c4ccc(Cl)cc4)cc23)c1F + CC(Nc1ncnc2nc[nH]c12)c1cc2cccc(Cl)c2c(=O)n1-c1ccccc1
Response given: 84.8

Challenge: Look up viability, T/C for this compound: Cn1ncc(Cl)c1-c1cc(C(=O)NC(CN)Cc2cccc(F)c2)sc1Cl (stereo not given) + CC(Nc1ncnc2nc[nH]c12)c1cc2cccc(Cl)c2c(=O)n1-c1ccccc1
Response given: 57.6

Challenge: Look up viability, T/C for this compound: Cn1nccc1Nc1nccc(-c2ccn(C(CO)c3ccc(Cl)c(F)c3)c(=O)c2)n1 (stereo not given) + Cc1nc(NC(=O)N2CCCC2C(N)=O)sc1-c1ccnc(C(C)(C)C(F)(F)F)c1
Response given: 83.3

Challenge: Look up viability, T/C for this compound: C=CC(=O)N1CCN(c2nc(=O)n(-c3c(C)ccnc3C(C)C)c3nc(-c4c(O)cccc4F)c(F)cc23)C(C)C1 (stereo not given) + Cc1nc(NC(=O)N2CCCC2C(N)=O)sc1-c1ccnc(C(C)(C)C(F)(F)F)c1
Response given: 75.9

Challenge: Look up viability, T/C for this compound: C#Cc1c(F)ccc2cc(O)cc(-c3ncc4c(N5CC6CCC(C5)N6)nc(OCC56CCCN5CC(F)C6)nc4c3F)c12 (stereo not given) + Cc1nc(NC(=O)N2CCCC2C(N)=O)sc1-c1ccnc(C(C)(C)C(F)(F)F)c1
Response given: 54

Challenge: Look up viability, T/C for this compound: C#Cc1c(F)ccc2cc(O)cc(-c3ncc4c(N5CC6CCC(C5)N6)nc(OCC56CCCN5CC(F)C6)nc4c3F)c12 (stereo not given) + CC(Nc1ncnc2nc[nH]c12)c1cc2cccc(Cl)c2c(=O)n1-c1ccccc1
Response given: 84.3

Challenge: Look up viability, T/C for this compound: CC1(C)CCC(CN2CCN(c3ccc(C(=O)NS(=O)(=O)c4ccc(NCC5CCOCC5)c([N+](=O)[O-])c4)c(Oc4cnc5[nH]ccc5c4)c3)CC2)=C(c2ccc(Cl)cc2)C1 + Cc1nc(NC(=O)N2CCCC2C(N)=O)sc1-c1ccnc(C(C)(C)C(F)(F)F)c1
Response given: 59.8

Challenge: Look up viability, T/C for this compound: C[C@@H](NC(=O)c1ncnc(N)c1Cl)c1ncc(C(=O)Nc2cc(C(F)(F)F)c(Cl)cn2)s1 + CC(Nc1ncnc2nc[nH]c12)c1cc2cccc(Cl)c2c(=O)n1-c1ccccc1
Response given: 98.8

Challenge: Look up viability, T/C for this compound: CC(C)NCC(C(=O)N1CCN(c2ncnc3c2C(C)CC3O)CC1)c1ccc(Cl)cc1 (stereo not given) + CC(Nc1ncnc2nc[nH]c12)c1cc2cccc(Cl)c2c(=O)n1-c1ccccc1
Response given: 87.5

Challenge: Look up viability, T/C for this compound: C[C@@H](NC(=O)c1ncnc(N)c1Cl)c1ncc(C(=O)Nc2cc(C(F)(F)F)c(Cl)cn2)s1 + Cc1nc(NC(=O)N2CCCC2C(N)=O)sc1-c1ccnc(C(C)(C)C(F)(F)F)c1
Response given: 64
